# PROCEDURE DETAILS: qHTS assay to identify small molecule antagonists of the androgen receptor (AR) signaling pathway using the MDA cell line in the presence of 0.5 nM R1881 - cell viability counter screen (AID 1259242); also: % is scaled to controls: 0 for no effect and ±100 for the full control effect; nearly all actives have a fitted effect of over 45% in size
# CONDITION NOTES: MDA-kb2 viability, CellTiter-Fluor protease fluorescence, 16 h; series mostly up to 92.4 µM
Results filed as inconclusive are left out. Calls of active or inactive are those of the source. Calls follow the shape of the dose curve; as a rule, active = well fitted cell-killing curve with a large enough effect in the repeat runs; inconclusive = weak or mixed curves, or effect the other way; inactive = flat fitted curve, though single readings scatter.
OBSERVATION TYPE: outcome

SMILES STRING | REPORTED
OC1CCCCCCCCCCC1 | inactive
c1ccc2cc(Nc3ccc(Nc4ccc5ccccc5c4)cc3)ccc2c1 | inactive
S=C(NC1CCCCC1)NC1CCCCC1 | inactive

---

# PROCEDURE DETAILS: qHTS assay to identify small molecule antagonists of the estrogen receptor beta (ER-beta) signaling pathway - cell viability counter screen (AID 1259382); also: nearly all actives have a fitted effect of over 55% in size
# CONDITION NOTES: ER-beta-UAS-bla HEK293T viability, CellTiter-Glo luminescence, 16 h; series mostly up to 92.4 µM
Records with an inconclusive call do not appear. Active and inactive are the calls of the source. Calls follow the shape of the dose curve; as a rule, active = well fitted cell-killing curve with a large enough effect in the repeat runs; inconclusive = weak or mixed curves; inactive = flat fitted curve, though single readings scatter.
Answer with one of the outcomes given here: 1 (yes) for active, 0 (no) for inactive

Task: Would you mind telling me which call this test gave COC(=O)C1=C(C)NC(C)=C(C(=O)OCCN(C)Cc2ccccc2)C1c1cccc([N+](=O)[O-])c1 (stereo unspecified) ?
Output: 1 (yes)

Task: Next up: CCCCCCCCCC(=O)OC
Output: 0 (no)

Task: Next up: CC1=CCC(C(C)(C)O)CC1 (stereo unspecified)
Output: 0 (no)

Task: Next up: O=[N+]([O-])c1ccc2c(c1)Cc1ccccc1-2
Output: 0 (no)

Task: Next up: CC(CCC(=O)O)(c1ccc(O)cc1)c1ccc(O)cc1
Output: 0 (no)

Task: Next up: CN(C)CCN(Cc1cccs1)c1ccccn1
Output: 0 (no)

---

# ASSAYED TARGET: Progesterone receptor (Homo sapiens) (UniProt P06401)
# Sequence (P06401 whole entry, looked up): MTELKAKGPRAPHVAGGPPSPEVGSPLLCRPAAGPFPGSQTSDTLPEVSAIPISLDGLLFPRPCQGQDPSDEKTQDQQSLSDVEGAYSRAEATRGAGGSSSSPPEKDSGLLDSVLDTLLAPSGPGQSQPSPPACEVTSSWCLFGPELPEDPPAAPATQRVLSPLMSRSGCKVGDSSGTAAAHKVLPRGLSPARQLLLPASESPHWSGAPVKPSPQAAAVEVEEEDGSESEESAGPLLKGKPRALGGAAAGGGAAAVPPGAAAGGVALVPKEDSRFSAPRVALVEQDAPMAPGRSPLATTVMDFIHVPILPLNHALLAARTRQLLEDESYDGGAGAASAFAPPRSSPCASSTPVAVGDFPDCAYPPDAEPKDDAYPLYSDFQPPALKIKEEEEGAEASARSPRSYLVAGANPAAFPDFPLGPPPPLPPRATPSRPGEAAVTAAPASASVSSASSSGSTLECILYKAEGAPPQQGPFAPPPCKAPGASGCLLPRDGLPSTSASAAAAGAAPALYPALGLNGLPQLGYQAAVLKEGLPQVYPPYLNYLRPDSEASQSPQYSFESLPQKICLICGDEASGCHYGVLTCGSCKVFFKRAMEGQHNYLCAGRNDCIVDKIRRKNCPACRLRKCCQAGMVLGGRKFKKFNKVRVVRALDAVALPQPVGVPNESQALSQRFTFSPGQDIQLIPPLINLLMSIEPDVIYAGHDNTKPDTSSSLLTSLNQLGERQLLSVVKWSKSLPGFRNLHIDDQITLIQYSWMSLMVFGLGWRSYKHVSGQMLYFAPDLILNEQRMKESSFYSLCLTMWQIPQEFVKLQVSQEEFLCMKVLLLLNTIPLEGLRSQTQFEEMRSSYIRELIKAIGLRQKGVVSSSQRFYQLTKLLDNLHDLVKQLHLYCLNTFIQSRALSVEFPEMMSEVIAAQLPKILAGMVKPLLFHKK
# PROCEDURE DETAILS: qHTS assay to identify small molecule antagonists of the progesterone receptor (PR) signaling pathway (AID 1346795)
# CONDITION NOTES: PR-UAS-bla HEK293T, beta-lactamase FRET ratio, 16 h; series mostly up to 92.4 µM
Inconclusive results are not listed. Activity calls are given as the source filed them. Calls follow the shape of the dose curve; as a rule, active = well fitted inhibition curve with a large enough effect in the signal ratio in the repeat runs (not every such curve was filed as active); inconclusive = weak or mixed curves; inactive = flat fitted curve, though single readings scatter; the % refers to the signal ratio.
Answer with one of the outcomes given here: label 1 = active, label 0 = inactive

Examples with answers:
COMPOUND | CLASS LABEL
c1cc(-c2ccncc2)ccn1 | label 0
Cc1ccc(C)c(O)c1C | label 0
C[C@]12CC[C@H]3[C@@H](CCC4=CC(=O)CC[C@@]43C)[C@@H]1CC[C@@H]2C(=O)CO | label 0
c1cc(N(CC2CO2)CC2CO2)ccc1OCC1CO1 (configuration not stated) | label 1
CCCCCCCCCCCO | label 0
O=Cc1ccccc1O | label 0

For the next question, use this compound.
Task: Would you mind telling me which call this test gave O=C(/C=C/c1ccccc1)OCc1ccccc1 ?
Output: label 0

---

# PROCEDURE DETAILS: qHTS assay for small molecule agonists of the p53 signaling pathway - cell viability (AID 651633); also: nearly all actives have a fitted effect of over 30% in size
# CONDITION NOTES: p53RE-bla HCT-116 viability, ATP luminescence, 16 h; series mostly up to 83.3 µM
Inconclusive results are not listed. The source made the active and inactive calls. Calls come from the whole dose curve.
Answer with one of the outcomes given here: active, inactive

COMPOUND | CLASS LABEL
COc1cc([C@@H]2c3cc4c(cc3[C@H](O)[C@H]3COC(=O)[C@H]23)OCO4)cc(OC)c1OC | inactive

Task: Would you mind telling me which call this test gave CCCCC(CC)COC(=O)c1ccc(N(C)C)cc1 (stereo unspecified) ?
Output: inactive

Task: Next up: CN(C)CCN(Cc1cccs1)c1ccccn1
Output: inactive

Task: Next up: CCCCNS(=O)(=O)c1ccccc1
Output: inactive

Task: Next up: CCCCC(CC)COP(=O)(OCC(CC)CCCC)OCC(CC)CCCC (stereo unspecified)
Output: inactive

Task: Next up: C/C=C/C(=O)O
Output: inactive

Task: Next up: O=C1OC2(c3cc(Br)c(O)c(Br)c3Oc3c2cc(Br)c(O)c3Br)c2c(Cl)c(Cl)c(Cl)c(Cl)c21
Output: active

Task: Next up: Nc1ccc(Nc2ccccc2)cc1
Output: inactive

Task: Next up: COc1ccc(C(=O)CC(=O)c2ccc(C(C)(C)C)cc2)cc1
Output: inactive

Task: Next up: CC(C)=CCC/C(C)=C\CO
Output: inactive

Task: Next up: CC(CCC(=O)O)(c1ccc(O)cc1)c1ccc(O)cc1
Output: inactive

Task: Next up: COC(C)COC(C)COC(C)CO (stereo unspecified)
Output: inactive

Task: Next up: CC1=CC2C3CC(C=C3C)C2C1 (stereo unspecified)
Output: inactive
